system: Escherichia coli; assay: Inhibition of protein synthesis in Escherichia coli by coupled transcription-translation assay; assay type: functional, organism-based
pIC50: −log10 of the molar value.
measured-parameter: pIC50

Recorded results for 5 molecules are shown here.
- Cc1ccc(S(=O)(=O)N(Cc2ccccc2)c2ccc(Nc3nc(N4C[C@H](N)C[C@H](N)C4)nc(N4C[C@@H](N)C[C@@H](O)C4)n3)cc2O)cc1: 4.77
- NC[C@@H]1C[C@H](N)CN1c1nc(Nc2ccc(NC(=O)c3ccc(Cl)cc3)c(O)c2)nc(N2C[C@H](N)C[C@H](N)C2)n1: 4.92
- Cc1ccc(S(=O)(=O)N(Cc2ccccc2)c2ccc(Nc3nc(N4C[C@H](N)C[C@H](N)C4)nc(N4CC[C@H](O)[C@@H]4CN)n3)cc2O)cc1: 4.68
- NCCN(CCN)c1nc(Nc2ccc(NC(=O)c3ccc4ccccc4c3O)cc2)nc(N2C[C@H](N)C[C@H](N)C2)n1: 5.00
- N[C@@H]1C[C@H](O)CN(c2nc(Nc3ccc(NC(=O)c4ccc5ccccc5c4O)cc3)nc(N3C[C@@H](N)C[C@@H](O)C3)n2)C1: 4.00

1 = N[C@@H]1C[C@H](N)CN(c2nc(Nc3ccc(NC(=O)c4ccc5ccccc5c4O)cc3)nc(N3C[C@@H](O)[C@@H](O)C3)n2)C1
2 = NC[C@H]1[C@@H](O)CCN1c1nc(Nc2ccc(NC(=O)c3ccc4ccccc4c3O)cc2)nc(N2C[C@H](N)C[C@H](N)C2)n1
3 = Cc1ccc(S(=O)(=O)N(Cc2ccccc2)c2ccc(Nc3nc(N4C[C@H](N)C[C@H](N)C4)nc(N4CC[C@H](O)[C@H](CN)C4)n3)cc2O)cc1
Returns the items ordered by pIC50, from maximum to minimum. Return the labels ranked in the requested order, please. 2, 3, 1
(2: 5.00, 3: 4.57, 1: 4.14)

I = CN[C@@H]1C[C@H](NC)CN(c2nc(Nc3ccc(Cl)c(Cl)c3)nc(N3C[C@H](NC)C[C@H](NC)C3)n2)C1
II = N[C@@H]1C[C@H](N)CN(c2nc(Nc3ccc(Cl)c(Cl)c3)nc(N3C[C@H](N)C[C@H](N)C3)n2)C1
III = N[C@@H]1C[C@H](N)CN(c2nc(Nc3ccc(NC(=O)c4ccc5ccccc5c4O)cc3)nc(N3C[C@@H](N)C[C@H]3CO)n2)C1
IV = N[C@@H]1C[C@H](N)CN(c2nc(Nc3ccc(NC(=O)c4ccc(Cl)cc4)c(O)c3)nc(N3C[C@@H](N)[C@@H](N)C3)n2)C1
V = NC[C@@H]1CN(c2nc(Nc3ccc(NC(=O)c4ccc(Cl)cc4)c(O)c3)nc(N3C[C@H](N)C[C@H](N)C3)n2)CC[C@@H]1O
List by increasing pIC50. Return the labels ranked in the requested order, please. IV, V, III, II, I

====

test system: Staphylococcus aureus; assay: Antibacterial activity against Staphylococcus aureus ATCC 25923; assay type: functional
measured-parameter: MIC (µg/mL)

* NC[C@@H]1CN(c2nc(Nc3ccc(NC(=O)c4ccc5ccccc5c4O)cc3)nc(N3C[C@H](N)C[C@H](N)C3)n2)CC[C@@H]1O | 16

1 = Cc1ccc(S(=O)(=O)N(Cc2ccccc2)c2ccc(Nc3nc(N4CCCC(O)C4)nc(N4C[C@H](N)C[C@H](N)C4)n3)cc2O)cc1 (some centres undefined)
2 = Cc1ccc(S(=O)(=O)N(Cc2ccccc2)c2ccc(Nc3nc(N4C[C@H](N)C[C@H](N)C4)nc(N4CC[C@H](O)[C@H](CN)C4)n3)cc2O)cc1
3 = NCCN(CCN)c1nc(Nc2ccc(NC(=O)c3ccc(Cl)cc3)c(O)c2)nc(N2C[C@H](N)C[C@H](N)C2)n1
List by increasing MIC. Return the labels ranked in the requested order, please. 1, 2, 3

====

system: Escherichia coli; experiment: Inhibition of protein synthesis in Escherichia coli by coupled transcription-translation assay; assay type: functional, organism-based
pIC50: −log10 of the molar value.
measured-parameter: pIC50

Recorded results for 2 compounds are shown here.
* Cc1ccc(S(=O)(=O)N(Cc2ccccc2)c2ccc(Nc3nc(N4CC(N)C4)nc(N4C[C@H](N)C[C@H](N)C4)n3)cc2O)cc1 | 4.96
* NCCN(CCN)c1nc(Nc2ccc(NC(=O)c3ccc4ccccc4c3O)cc2)nc(N(CCN)CCN)n1 | 5.15

A = NC[C@@H]1C[C@H](N)CN1c1nc(Nc2ccc(NC(=O)c3ccc4ccccc4c3O)cc2)nc(N2C[C@H](N)C[C@@H]2CN)n1
B = Cc1ccc(S(=O)(=O)N(Cc2ccccc2)c2ccc(Nc3nc(N4C[C@H](N)C[C@H](N)C4)nc(N4C[C@@H](N)C[C@H]4CN)n3)cc2O)cc1
Smaller pIC50 value? Options are A and B Record your answer as the label of the chosen record. B

====

Here, each record is paired with measured IC50 data.
system: Escherichia coli; assay: Inhibition of protein synthesis in Escherichia coli by coupled transcription-translation assay; type: functional, organism-based

Recorded results for 2 compounds are shown here.
- NC1CCCN(c2nc(Nc3ccc(Cl)c(Cl)c3)nc(N3CCCC(N)C3)n2)C1 (stereo not drawn): > 1000 µM
- Cc1ccc(S(=O)(=O)N(Cc2ccccc2)c2ccc(Nc3nc(N4CCC(C(N)=O)CC4)nc(N4C[C@H](N)C[C@H](N)C4)n3)cc2O)cc1: > 1000 µM

Now, please, on to the next compound.
Reported IC50 for NC(=O)C1CCN(c2nc(Nc3ccc(NC(=O)c4ccc(Cl)cc4)c(O)c3)nc(N3C[C@H](N)C[C@H](N)C3)n2)CC1 : what is it? > 1000 µM
